assay explanation: Ratio of drug concentration in brain to plasma of mouse at 10 mg/kg, po measured at 1 to 4 hrs post dose
Type: ADME, organism-based
applied conditions: brain and plasma, time 1-4 hrs
measured attribute: Kp
I only need the number, thanks.

Looking up `O=c1c(-c2ccc(Br)cc2)c2nc(NCC(F)(F)F)ncc2cn1-c1ccc2ncccc2c1` , I see its Kp listed as 0.1
